Ref: ChEMBL document CHEMBL4219205

SYSTEM UNDER TEST: G protein-coupled receptor kinase 5 (Homo sapiens, UniProt P34947)
Sequence (P34947 whole entry): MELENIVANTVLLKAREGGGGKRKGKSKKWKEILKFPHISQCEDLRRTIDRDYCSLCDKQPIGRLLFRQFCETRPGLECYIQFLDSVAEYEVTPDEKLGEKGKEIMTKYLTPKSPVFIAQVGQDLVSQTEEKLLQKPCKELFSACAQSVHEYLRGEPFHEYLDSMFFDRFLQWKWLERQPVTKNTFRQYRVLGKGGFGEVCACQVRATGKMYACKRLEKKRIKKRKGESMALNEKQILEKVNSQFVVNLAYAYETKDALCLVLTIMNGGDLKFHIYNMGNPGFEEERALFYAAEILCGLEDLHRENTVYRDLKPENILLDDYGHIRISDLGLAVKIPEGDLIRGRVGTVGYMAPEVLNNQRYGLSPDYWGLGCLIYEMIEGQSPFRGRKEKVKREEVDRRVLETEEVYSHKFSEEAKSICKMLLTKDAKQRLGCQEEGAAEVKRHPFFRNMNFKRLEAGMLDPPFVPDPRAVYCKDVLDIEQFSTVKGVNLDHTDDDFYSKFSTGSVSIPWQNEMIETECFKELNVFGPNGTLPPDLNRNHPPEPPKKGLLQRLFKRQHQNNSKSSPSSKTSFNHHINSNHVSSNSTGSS
pIC50: −log10 of the molar value.
OBSERVED PROPERTY: pIC50

compound="CC1=C(C(=O)Nc2ccc3[nH]ncc3c2)C(c2ccc(F)c(CC(=O)N(CCO)Cc3ccco3)c2)NC(=O)N1 (centres undefined)" relation_sign== readout_number=5.77
compound="CC1=C(C(=O)Nc2ccc3[nH]ncc3c2)C(c2ccc(F)c(CC(=O)N3CCCC(C(C)(C)C)CC3)c2)NC(=O)N1 (centres undefined)" relation_sign=< readout_number=4.00
compound="CC1=C(C(=O)Nc2ccc3[nH]ncc3c2)C(c2ccc(F)c(CC(=O)N3CCC4CCC(C3)N4C)c2)NC(=O)N1 (centres undefined)" relation_sign== readout_number=5.21
compound="CCC1(O)CCCN(C(=O)CCc2cc(C3NC(=O)NC(C)=C3C(=O)Nc3ccc4[nH]ncc4c3)ccc2F)C1 (centres undefined)" relation_sign=< readout_number=4.00

###

SYSTEM UNDER TEST: Beta-adrenergic receptor kinase 1 (Homo sapiens)
Sequence (P25098 whole entry): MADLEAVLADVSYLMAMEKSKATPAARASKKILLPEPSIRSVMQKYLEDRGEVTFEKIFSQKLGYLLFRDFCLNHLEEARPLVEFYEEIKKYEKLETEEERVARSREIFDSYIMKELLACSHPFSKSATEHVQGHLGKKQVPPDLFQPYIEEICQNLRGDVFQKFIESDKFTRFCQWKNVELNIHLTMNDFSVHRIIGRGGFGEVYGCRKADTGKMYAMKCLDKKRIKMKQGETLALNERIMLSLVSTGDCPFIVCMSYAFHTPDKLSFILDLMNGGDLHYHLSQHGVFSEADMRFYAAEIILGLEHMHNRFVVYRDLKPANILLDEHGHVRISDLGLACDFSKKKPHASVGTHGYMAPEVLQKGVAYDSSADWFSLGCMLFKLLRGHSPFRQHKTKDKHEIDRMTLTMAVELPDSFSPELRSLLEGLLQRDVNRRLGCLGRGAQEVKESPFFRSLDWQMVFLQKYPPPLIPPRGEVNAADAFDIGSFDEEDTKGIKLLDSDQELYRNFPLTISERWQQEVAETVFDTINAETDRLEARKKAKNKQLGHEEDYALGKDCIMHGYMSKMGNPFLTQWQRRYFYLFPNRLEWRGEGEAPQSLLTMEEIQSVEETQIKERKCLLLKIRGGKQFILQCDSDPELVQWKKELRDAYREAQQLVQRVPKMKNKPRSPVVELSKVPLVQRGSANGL
OBSERVED PROPERTY: IC50 (nM)

compound="CC1=C(C(=O)Nc2ccc3[nH]ncc3c2)C(c2ccc(F)c(C(=O)NCC(C)N3CCCCCC3)c2)NC(=O)N1 (stereo not drawn)" units_label=nM readout_number=1200
compound="CC1=C(C(=O)Nc2ccc3[nH]ncc3c2)C(c2ccc(F)c(CC(=O)NCc3ccc(C#N)nc3)c2)NC(=O)N1 (stereo not drawn)" units_label=nM readout_number=1400
compound="CC1=C(C(=O)Nc2ccc3[nH]ncc3c2)C(c2ccc(F)c(CC(=O)N3Cc4ccc(C)cc4C3)c2)NC(=O)N1 (stereo not drawn)" units_label=nM readout_number=200
compound="CC#CCN(CCCC)C(=O)Cc1cc(C2NC(=O)NC(C)=C2C(=O)Nc2ccc3[nH]ncc3c2)ccc1F (stereo not drawn)" units_label=nM readout_number=430
compound="CC1=C(C(=O)Nc2ccc3[nH]ncc3c2)C(c2ccc(F)c(CCC(=O)N(CC(C)C)C(C)C)c2)NC(=O)N1 (stereo not drawn)" units_label=nM readout_number=12000
compound="CC1=C(C(=O)Nc2ccc3[nH]ncc3c2)C(c2ccc(F)c(C(=O)NCc3cnc4c(c3)CCC4)c2)NC(=O)N1 (stereo not drawn)" units_label=nM readout_number=340
compound="CCC(C)N(CO)C(=O)Cc1cc(C2NC(=O)NC(C)=C2C(=O)Nc2ccc3[nH]ncc3c2)ccc1F (stereo not drawn)" units_label=nM readout_number=1900
compound="CC1=C(C(=O)Nc2ccc3[nH]ncc3c2)C(c2ccc(F)c(C(=O)N(C)CC3CCCCO3)c2)NC(=O)N1 (stereo not drawn)" units_label=nM readout_number=14000

###

SYSTEM UNDER TEST: Beta-adrenergic receptor kinase 1 (Homo sapiens)
Sequence (P25098 whole entry): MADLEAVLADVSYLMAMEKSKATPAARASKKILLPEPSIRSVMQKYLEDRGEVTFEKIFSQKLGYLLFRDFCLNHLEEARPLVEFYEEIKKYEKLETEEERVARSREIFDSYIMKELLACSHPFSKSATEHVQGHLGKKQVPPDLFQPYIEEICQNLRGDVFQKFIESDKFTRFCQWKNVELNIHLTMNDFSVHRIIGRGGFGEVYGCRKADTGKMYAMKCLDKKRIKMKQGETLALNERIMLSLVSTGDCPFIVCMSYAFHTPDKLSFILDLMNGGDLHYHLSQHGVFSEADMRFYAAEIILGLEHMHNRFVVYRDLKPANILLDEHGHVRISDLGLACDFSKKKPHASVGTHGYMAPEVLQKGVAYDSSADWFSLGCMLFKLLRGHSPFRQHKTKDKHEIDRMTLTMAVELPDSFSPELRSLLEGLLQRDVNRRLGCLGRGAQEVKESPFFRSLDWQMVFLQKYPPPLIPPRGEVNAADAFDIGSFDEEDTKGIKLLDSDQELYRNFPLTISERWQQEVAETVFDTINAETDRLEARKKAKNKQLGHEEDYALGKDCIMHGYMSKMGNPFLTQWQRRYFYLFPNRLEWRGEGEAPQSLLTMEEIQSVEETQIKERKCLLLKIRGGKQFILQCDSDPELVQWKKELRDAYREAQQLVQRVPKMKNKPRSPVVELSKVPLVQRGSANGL
TEST PROTOCOL: Inhibition of GRK2 (unknown origin) preincubated for 10 mins followed by peptide substrate and ATP addition measured after 1 hr by TR-FRET assay
Classify: y when IC50 is strictly less than 500 nM; n when IC50 is not.

compound="COCc1noc(CNC(=O)c2cc(C3NC(=O)NC(C)=C3C(=O)Nc3ccc4[nH]ncc4c3)ccc2F)n1 (stereo not drawn)" class_name=y
compound="CC1=C(C(=O)Nc2ccc3[nH]ncc3c2)C(c2ccc(F)c(CC(=O)N(CCO)Cc3ccco3)c2)NC(=O)N1 (stereo not drawn)" class_name=y
compound="CC1=C(C(=O)Nc2ccc3[nH]ncc3c2)C(c2ccc(F)c(CCC(=O)NCC3(CO)CC3)c2)NC(=O)N1 (stereo not drawn)" class_name=n
compound="CC1=C(C(=O)Nc2ccc3[nH]ncc3c2)C(c2ccc(F)c(C(=O)NCc3cn4ccccc4n3)c2)NC(=O)N1 (stereo not drawn)" class_name=n
compound="CCC(C)CN(CCO)C(=O)Cc1cc(C2NC(=O)NC(C)=C2C(=O)Nc2ccc3[nH]ncc3c2)ccc1F (stereo not drawn)" class_name=n
compound="COCCCC1CCCCN1C(=O)c1cc(C2NC(=O)NC(C)=C2C(=O)Nc2ccc3[nH]ncc3c2)ccc1F (stereo not drawn)" class_name=n
compound="CC1=C(C(=O)Nc2ccc3[nH]ncc3c2)C(c2ccc(F)c(C(=O)N(C)Cc3cc(C)[nH]n3)c2)NC(=O)N1 (stereo not drawn)" class_name=n
compound="CC1=C(C(=O)Nc2ccc3[nH]ncc3c2)C(c2ccc(F)c(C(=O)NC3CC4CCC3(C)C4(C)C)c2)NC(=O)N1 (stereo not drawn)" class_name=n
compound="CC1=C(C(=O)Nc2ccc3[nH]ncc3c2)C(c2ccc(F)c(CC(=O)N3CCC4CCC(C3)N4C)c2)NC(=O)N1 (stereo not drawn)" class_name=n
compound="COc1ccccc1C(C)NC(=O)c1cc(C2NC(=O)NC(C)=C2C(=O)Nc2ccc3[nH]ncc3c2)ccc1F (stereo not drawn)" class_name=y
compound="CCC1(O)CCCN(C(=O)CCc2cc(C3NC(=O)NC(C)=C3C(=O)Nc3ccc4[nH]ncc4c3)ccc2F)C1 (stereo not drawn)" class_name=n
compound="COC(=O)C1(NC(=O)c2cc(C3NC(=O)NC(C)=C3C(=O)Nc3ccc4[nH]ncc4c3)ccc2F)CCCCC1 (stereo not drawn)" class_name=y

###

# IC50 per entry
SYSTEM UNDER TEST: UniProt:Q15835
Sequence (Q15835 whole entry): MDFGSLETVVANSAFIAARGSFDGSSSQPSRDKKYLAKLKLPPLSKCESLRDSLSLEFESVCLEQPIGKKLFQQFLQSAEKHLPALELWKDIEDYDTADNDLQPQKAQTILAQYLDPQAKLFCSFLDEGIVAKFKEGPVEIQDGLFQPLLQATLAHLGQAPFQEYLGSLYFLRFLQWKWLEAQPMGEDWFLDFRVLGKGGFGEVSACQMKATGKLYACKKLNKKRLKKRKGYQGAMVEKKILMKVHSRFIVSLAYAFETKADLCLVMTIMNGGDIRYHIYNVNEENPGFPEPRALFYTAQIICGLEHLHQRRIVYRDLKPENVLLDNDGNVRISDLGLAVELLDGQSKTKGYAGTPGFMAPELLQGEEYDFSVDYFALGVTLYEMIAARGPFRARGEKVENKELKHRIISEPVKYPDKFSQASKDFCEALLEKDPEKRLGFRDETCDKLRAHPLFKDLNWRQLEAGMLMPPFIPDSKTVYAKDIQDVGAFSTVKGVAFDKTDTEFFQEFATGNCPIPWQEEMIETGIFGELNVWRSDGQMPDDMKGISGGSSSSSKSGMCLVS
OBSERVED PROPERTY: IC50

molecule="CC1=C(C(=O)Nc2ccc3[nH]ncc3c2)C(c2ccc(F)c(CC(=O)NCc3cc(C)ccc3C)c2)NC(=O)N1 (stereo unspecified)" observed_property=IC50 result="> 100 µM"
molecule="CCC(C)N(C)C(=O)c1cc(C2NC(=O)NC(C)=C2C(=O)Nc2ccc3[nH]ncc3c2)ccc1F (stereo unspecified)" observed_property=IC50 result="> 100 µM"
molecule="COC(=O)C1(NC(=O)c2cc(C3NC(=O)NC(C)=C3C(=O)Nc3ccc4[nH]ncc4c3)ccc2F)CCCCC1 (stereo unspecified)" observed_property=IC50 result="83 µM"
molecule="CC1=C(C(=O)Nc2ccc3[nH]ncc3c2)C(c2ccc(F)c(CC(=O)NCC3CCN(C4CC4)CC3)c2)NC(=O)N1 (stereo unspecified)" observed_property=IC50 result="> 100 µM"
molecule="CCc1nc(CNC(=O)c2cc(C3NC(=O)NC(C)=C3C(=O)Nc3ccc4[nH]ncc4c3)ccc2F)no1 (stereo unspecified)" observed_property=IC50 result="3 µM"
molecule="CC1=C(C(=O)Nc2ccc3[nH]ncc3c2)C(c2ccc(F)c(CC(=O)N3CCCC(C(C)(C)C)CC3)c2)NC(=O)N1 (stereo unspecified)" observed_property=IC50 result="> 100 µM"
molecule="CC1=C(C(=O)Nc2ccc3[nH]ncc3c2)C(c2ccc(F)c(C(=O)NC3CN4CCC3CC4)c2)NC(=O)N1 (stereo unspecified)" observed_property=IC50 result="> 100 µM"
molecule="C#CCN(CC(C)C)C(=O)Cc1cc(C2NC(=O)NC(C)=C2C(=O)Nc2ccc3[nH]ncc3c2)ccc1F (stereo unspecified)" observed_property=IC50 result="> 100 µM"
molecule="CC1=C(C(=O)Nc2ccc3[nH]ncc3c2)C(c2ccc(F)c(CC(=O)N3CCOC(CCO)C3)c2)NC(=O)N1 (stereo unspecified)" observed_property=IC50 result="> 100 µM"
molecule="CC1=C(C(=O)Nc2ccc3[nH]ncc3c2)C(c2ccc(F)c(CC(=O)NCc3ccc(C#N)nc3)c2)NC(=O)N1 (stereo unspecified)" observed_property=IC50 result="> 100 µM"
molecule="CCC1(O)CCCN(C(=O)CCc2cc(C3NC(=O)NC(C)=C3C(=O)Nc3ccc4[nH]ncc4c3)ccc2F)C1 (stereo unspecified)" observed_property=IC50 result="> 100 µM"
